- Test system: KM12 colon
- assay-overview: NCI tumour cell line growth inhibition, 48 h; in the data active = GI50 below about 0.43 µM; inactive = the rest
Respond only with the outcome that fits, drawn from class 1 = active, class 0 = inactive

Record excerpt, results attached:
compound | category-label
COc1cc(-c2ccc3c(c2)NC(=O)/C3=C\c2ccc[nH]2)ccc1O | class 1
CNc1ccc(C(=O)CC(O)CCC(C)C2OC(=O)CC(O)CC(=O)CC(O)CC(O)CC(O)CC(O)CC3(O)CC(O)C(C(=O)OC)C(CC(O[C@@H]4O[C@H](C)[C@@H](O)[C@H](N)[C@@H]4O)/C=C/C=C/C=C/C=C/C=C/C=C/C=C/C2C)O3)cc1 (stereo not given in full) | class 0
c1cc(CNC23CC4CC(CC(C4)C2)C3)cc(C[N+](Cc2cccc(CNC34CC5CC(CC(C5)C3)C4)c2)(Cc2cccc(CNC34CC5CC(CC(C5)C3)C4)c2)Cc2cccc(CNC34CC5CC(CC(C5)C3)C4)c2)c1 (stereo not given) | class 0
CCOC(=O)c1c(C)n(Cc2ccc(Cl)cc2Cl)c2c1c(CN(C)C)c(O)c1[nH]cnc12 | class 0
Clc1ccc(C2=Nn3c(COc4ccccc4Cl)nnc3SC2)c(Cl)c1 | class 0
COc1nc2ccccc2cc1-c1nc2c(cnn2-c2ccc(Br)cc2)c(=O)[nH]1 | class 1
CCCCCCCC/C=C/CCCCCCCC(=O)OC[C@H]1O[C@@H](n2ccc(N)nc2=O)C(F)(F)[C@@H]1O | class 0
Cc1ccc(C(=O)CN(/C=C/C(=O)C(F)(F)F)c2ccc(S(N)(=O)=O)cc2)cc1 | class 0

Turning to the following compound.
Task: Call for entry CC(C)n1nc(-c2cc3cc(O)ccc3[nH]2)c2c(N)ncnc21 :
Result: class 1
